System: SN12K1
assay comment: cells
Assay type: functional
test context: Homo sapiens
Calls of active or inactive are those of the source.

molecule: Cc1csc(/N=C(/NCCN2CCOCC2)Nc2nc(C)cs2)n1
GI50: > 100 µM (inactive)
--
molecule: COC(=O)C(C/C=C(\C)c1ccc(Cl)cc1)C(C)=O (centres undefined)
GI50: 21.8 µM (inactive)
--
molecule: N=C(N)NCCCCCCC(=O)NC(O)C(=O)NCCCCNCCCN (centres undefined)
GI50: 731 µM (inactive)
--
molecule: C/C=C/C1=CC(=O)C(O)C1O (centres undefined)
GI50: 28.1 µM (inactive)

---

Item-by-item account of EC50
assay comment: alpha-synuclein stem-loop luciferase translation blockers – H4 neuroglioma cells, luminescence, confirmation (AID 1988)
Format: functional, cell-based
Calls of active or inactive are those of the source.

molecule: CCCCc1nc2[nH]nc(N)c2c2c1CCCC2
EC50: 12 µM (active)
--
molecule: COc1ccc(C2NCc3ccc4c(c3-n3cccc32)OCO4)cc1O (centres undefined)
EC50: < 0.1 µM (active)
--
molecule: COc1ccc(NC(=O)CN(C)C(=O)c2cccc(S(=O)(=O)N3CCCc4ccccc43)c2)cc1
EC50: 72.5 µM (active)
--
molecule: CCOc1ccc(S(=O)(=O)N2CCC(C(=O)NCc3ccco3)CC2)cc1C
EC50: 37.6 µM (active)

---

assay comment: loss of viability in HepG2 cells – cell-based, CellTiter-Glo, cherry-picked, cytotoxicity control for Shn3 inhibitor project, dose response (AID 624134)
Type: functional
Calls of active or inactive are those of the source.
endpoint: AC50

compound: COc1cc2ccnc(Cc3cccc(OC)c3OC)c2cc1OC
reported result: 40.7 µM (active)
//
compound: O=C(Nc1nc(-c2ccccn2)cs1)C1COc2ccccc2O1 (centres undefined)
reported result: 47.6 µM (active)
//
compound: COc1ccc(CNc2[nH]cnc3c4ccccc4nc2-3)cc1
reported result: 28 µM (active)
//
compound: COc1ccc(C(NC(C)=O)c2ccc3cccnc3c2O)c(OC)c1 (centres undefined)
reported result: 2.68 µM (active)

---

Item-by-item account of EC50
assay comment: Luminescence Cell-Based Dose Confirmation HTS to Identify Inhibitors of Platelet Dense Granule Release. [Related pubchem assays: 1663 (Primary HTS), 1678 (Summary of Project)]
Format: functional
Calls of active or inactive are those of the source.

record smiles: O=C(Nc1ccc(N2CCOCC2)cc1)c1cn2ccccc2n1
EC50: 3.25 µM (active)

record smiles: COc1ccccc1Nc1nc(NCc2ccco2)c2ccccc2n1
EC50: > 112 µM (not active)

record smiles: CCCCOc1ccccc1C1C(C(=O)OC)=CN(CC)C=C1C(=O)OC
EC50: > 112 µM (not active)

record smiles: O=S(=O)(Nc1ccc(-c2ccc3nncn3n2)cc1)c1cc(F)ccc1F
EC50: > 112 µM (not active)

---

system name: FAD-linked sulfhydryl oxidase ALR (Homo sapiens)
Sequence (P55789 whole entry): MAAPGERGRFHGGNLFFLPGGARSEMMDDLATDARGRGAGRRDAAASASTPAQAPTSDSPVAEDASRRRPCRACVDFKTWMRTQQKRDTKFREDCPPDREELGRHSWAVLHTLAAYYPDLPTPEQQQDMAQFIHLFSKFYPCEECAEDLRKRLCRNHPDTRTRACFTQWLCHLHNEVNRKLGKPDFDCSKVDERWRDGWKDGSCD
assay comment: ALR-catalysed DTT oxidation blockers – biochemical, H2O2 detection, luminescence, cherry-pick, dose response (AID 493248)
Calls of active or inactive are those of the source.

molecule: COc1nc(Oc2ccc(/C=N/O)cc2)nc(N(C)C)n1
AC50: 2.99 µM (active)

molecule: O=C(NCc1ccccc1)c1[nH]cnc1C(=O)N1CCN(c2ccccc2)CC1
AC50: 6.21 µM (active)

molecule: Oc1ccc(C23CC4CC(CC(C4)C2)C3)cc1O
AC50: 4.17 µM (active)

molecule: COc1ccc(Br)cc1/C=N/Nc1ccc(Cl)c(C(=O)O)c1
AC50: 6.26 µM (active)

molecule: CCN(CCNC(=O)c1ccc(C#N)cc1)c1cccc(C)c1
AC50: 1.75 µM (active)

molecule: COc1cc(/C=N/NS(=O)(=O)c2ccc(Br)cc2)ccc1O
AC50: 1.7 µM (active)

molecule: Cc1[nH]c2ccccc2c1/C=N/O
AC50: 20.2 µM (active)

molecule: COc1ccc(N2CCN(C(CNC(C)=O)c3ccc4c(c3)OCO4)CC2)cc1 (centres undefined)
AC50: 4.58 µM (active)

molecule: Oc1ccc(CCNc2c3ccccc3nc3ccccc23)cc1O
AC50: 2.76 µM (active)
